Cited source: PubChem BioAssay (Tox21)

# experiment: qHTS assay to identify small molecule antagonists of the estrogen related receptor (ERR) signaling pathway from Tox21 library - cell viability counter screen (AID 1224834); also: nearly all actives have a fitted effect of over 30% in size
# cond: ERR reporter cells viability, CellTiter-Fluor, 17.5 h; series mostly up to 92.4 µM
Results filed as inconclusive are left out. The source made the active and inactive calls. Calls follow the shape of the dose curve; as a rule, active = well fitted cell-killing curve with a large enough effect in the repeat runs; inconclusive = weak or mixed curves; inactive = flat fitted curve, though single readings scatter.
I would appreciate it if you answered using one of these outcomes: active, inactive

compound=Cc1ccc(O)c(O)c1 label_value=active

What did the test return for CCC(CC)(CC(=O)Nc1cccc(/C=C/c2nc(C3CCC3)cs2)c1)C(=O)O ?
inactive

What did the test return for CCN(CC)C(=O)c1cc(S(=O)(=O)Cc2ccccc2)c(N2CCC(c3ccccc3)CC2)cc1N(CC)CCN(C)C ?
active

What did the test return for O=C(O)c1cc(=O)c2ccccc2o1 ?
inactive

What did the test return for COC(=O)c1ccccc1C ?
inactive

What did the test return for CCOC(=O)NNc1ccc(N(CC)CC(C)O)nn1 (configuration not stated) ?
inactive

What did the test return for Cc1cccc(C)c1NC(=O)c1ccc(N)cc1 ?
inactive

What did the test return for CC(=O)Oc1cc2c(s1)CCN(C(C(=O)C1CC1)c1ccccc1F)C2 (configuration not stated) ?
inactive

What did the test return for C#CC1(O)CC[C@H]2[C@@H]3CCC4=CCCC[C@@H]4[C@H]3CC[C@@]21C (some centres not stated) ?
active

What did the test return for c1ccc(SSc2ccccc2)cc1 ?
inactive

What did the test return for CC(N=C(NC#N)Nc1ccncc1)C(C)(C)C (configuration not stated) ?
inactive

What did the test return for Nc1ccc(Oc2ccc(Cl)cc2)cc1 ?
inactive
